# targetUnderTest: T1, recombinant human PSMA (R&D, cat. no. 4234-ZN) (human, UniProt Q04609 44-750)
# T1 construct: Bought protein; also called rhPSMA; Recombinant PMSA
# T1 sequence (Q04609 44-750 limits assumed): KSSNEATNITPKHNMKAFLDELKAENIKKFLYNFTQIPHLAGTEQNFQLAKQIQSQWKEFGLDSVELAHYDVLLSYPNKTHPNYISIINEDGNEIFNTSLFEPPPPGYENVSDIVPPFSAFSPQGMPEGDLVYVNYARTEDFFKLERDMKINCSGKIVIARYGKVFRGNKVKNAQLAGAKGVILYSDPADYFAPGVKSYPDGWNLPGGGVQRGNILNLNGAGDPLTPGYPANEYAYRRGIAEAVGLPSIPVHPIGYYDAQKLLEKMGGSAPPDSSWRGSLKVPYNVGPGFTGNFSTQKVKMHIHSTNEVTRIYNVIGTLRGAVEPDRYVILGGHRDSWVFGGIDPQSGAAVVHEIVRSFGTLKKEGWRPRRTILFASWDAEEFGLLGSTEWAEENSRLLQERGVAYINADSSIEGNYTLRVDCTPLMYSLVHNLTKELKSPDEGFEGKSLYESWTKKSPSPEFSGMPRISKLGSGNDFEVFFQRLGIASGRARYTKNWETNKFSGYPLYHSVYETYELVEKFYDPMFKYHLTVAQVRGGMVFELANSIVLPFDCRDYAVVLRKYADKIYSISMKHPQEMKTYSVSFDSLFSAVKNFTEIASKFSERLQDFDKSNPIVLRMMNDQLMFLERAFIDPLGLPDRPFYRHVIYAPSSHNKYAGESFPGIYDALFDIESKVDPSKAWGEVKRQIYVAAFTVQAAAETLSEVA
# measurementProtocol: Octet RED384 BLI, PSMA on sensor, VH series from 0.375 ug/ml
pKd: −log10 of the molar value.
Mark -1 for pKd values under 9, and 1 for everything at or above.

single VH domain antibody 2.1 (VHH, Human single VH domain antibody (Humabody); tested with a C-terminal His tag; 71-95; also called VH 2.1; VH2.1) VHH: EVQLVESGGGVVQPGRSLRLSCAASGFSFSGYGMHWVRQAPGKGLEWVAYISYDGSNKYYADSVKGRFTISRDNSKNTLYLQMNSLRAEDTAVYYCAKDPAWGLRLGESSSYDFDIWGQGTMVTVSS ... 1

For this binder, is measured pKd 9 or higher? single VH domain antibody 2.22 (VHH, Human single VH domain antibody (Humabody); C-terminal His tag, residues not tied) VHH: EVQLVESGGGVVQPGRSLRLSCAASGFSFSGYGTHWVRQAPGKGLEWVAYISYDGSNKYYAAPVKGRFTISRDNSKNTLYLQMNSLRAEDTAVYYCAKDAAWGLRLGESSSYDFDIWGQGTMVTVSS -1
